src = patent US8546381B2

studyTarget: human recombinant histamine H1 receptor (Homo sapiens, UniProt P35367)
Construct: expressed in transfected cells; host or cells: CHO cells
Sequence (P35367 whole entry): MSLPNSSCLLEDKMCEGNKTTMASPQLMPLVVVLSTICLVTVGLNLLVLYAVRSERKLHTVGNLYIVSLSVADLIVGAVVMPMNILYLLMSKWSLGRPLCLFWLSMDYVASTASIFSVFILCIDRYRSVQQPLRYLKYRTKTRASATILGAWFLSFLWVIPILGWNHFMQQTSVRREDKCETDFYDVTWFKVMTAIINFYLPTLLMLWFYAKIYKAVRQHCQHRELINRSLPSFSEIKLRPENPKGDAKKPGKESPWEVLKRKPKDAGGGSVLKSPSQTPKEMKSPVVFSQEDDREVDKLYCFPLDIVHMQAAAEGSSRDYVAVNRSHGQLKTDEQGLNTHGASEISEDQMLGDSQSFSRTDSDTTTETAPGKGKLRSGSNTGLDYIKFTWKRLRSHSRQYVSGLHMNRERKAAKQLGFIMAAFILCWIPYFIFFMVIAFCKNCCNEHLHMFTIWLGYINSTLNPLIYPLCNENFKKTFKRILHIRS
assayOverview: Histamine H1 radioligand binding ([3H]Pyrilamine)
cond: compound at 1 μM; inhibition of specific [3H]Pyrilamine binding; read-out: Histamine Binding (1 μM) H1, Percentage Inhibition
The label depends only on inhibition at 1 µM: Y if it is at least 70%, N if it is smaller.

compound: CN1[C@@H]2CC[C@H]1c1c(n(CC(=O)N3CCCCC3)c3ccccc13)C2
qualitativeLabel: N

Dear colleague, could you confirm whether CN1C2CCC1c1c(n(CCc3ccc(F)cc3)c3ccc(Cl)cc13)C2 (stereo not drawn) has inhibition at 1 µM at or above 70%?
Y

Dear colleague, could you confirm whether CN1[C@@H]2CC[C@H]1c1c(n(CCc3ccc(C(F)(F)F)nc3)c3ccccc13)C2 has inhibition at 1 µM at or above 70%?
N

Dear colleague, could you confirm whether CN1C2CCC1c1c(n(CCc3ccc(Cl)cc3)c3ccc(F)cc13)C2 (stereo not drawn) has inhibition at 1 µM at or above 70%?
Y

----------
studyTarget: human recombinant dopamine D2L receptor (Homo sapiens)
Construct: expressed in transfected cells; host or cells: CHO cells
Sequence (P14416 whole entry): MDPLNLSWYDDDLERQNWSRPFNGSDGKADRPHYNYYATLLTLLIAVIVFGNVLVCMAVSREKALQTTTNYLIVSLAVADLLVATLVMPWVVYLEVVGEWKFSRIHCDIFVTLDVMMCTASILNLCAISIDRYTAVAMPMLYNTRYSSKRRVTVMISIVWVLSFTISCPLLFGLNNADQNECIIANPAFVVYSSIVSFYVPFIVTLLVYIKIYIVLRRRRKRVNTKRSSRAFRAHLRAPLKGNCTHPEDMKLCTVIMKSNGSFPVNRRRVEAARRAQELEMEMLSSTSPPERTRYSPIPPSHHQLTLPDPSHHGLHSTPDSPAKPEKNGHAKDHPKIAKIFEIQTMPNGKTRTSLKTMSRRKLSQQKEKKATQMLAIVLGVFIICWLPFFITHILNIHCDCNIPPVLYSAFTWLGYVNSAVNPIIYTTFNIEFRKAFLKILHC
assayOverview: Dopamine D2L radioligand binding ([3H]Spiperone)
cond: read-out: Dopamine (1 μM) D2L, inhibition of ligand binding
The label depends only on inhibition at 1 µM: 1.0 if it is at least 10%, 0.0 if it is smaller.

Worked examples, 3 molecules total:
molecule: Cc1ccc2c(c1)c1c(n2CC(C)(O)c2ccc(Cl)cc2)CC2CCC1N2C (centres unmarked) [Compound 54]
qualitativeLabel: 1.0
--
molecule: Cc1ccc(CCn2c3c(c4ccccc42)[C@@H]2CC[C@H](C3)N2C)cn1 [Compound 102]
qualitativeLabel: 0.0
--
molecule: CN1C2CCC1c1c(n(CCC(=O)N3CC[S+]([O-])CC3)c3ccc(Cl)cc13)C2 (centres unmarked) [Compound 10]
qualitativeLabel: 0.0

Dear colleague, could you confirm whether CN1C2CCC1c1c(n(CC(=O)c3ccc(Cl)cc3)c3ccc(Cl)cc13)C2 (centres unmarked) [Compound 111] has inhibition at 1 µM at or above 10%?
0.0

Dear colleague, could you confirm whether CC(=O)N1CCN(C(=O)CCn2c3c(c4cc(Cl)ccc42)C2CCC(C3)N2C)CC1 (centres unmarked) [Compound 8] has inhibition at 1 µM at or above 10%?
0.0

Dear colleague, could you confirm whether Cc1ccc2c(c1)c1c(n2CCc2ccc(C(F)(F)F)nc2)CC2CCC1N2C (centres unmarked) [Compound 71] has inhibition at 1 µM at or above 10%?
0.0

Dear colleague, could you confirm whether Cc1ccc2c(c1)c1c(n2CCc2nc(-c3ccccc3)cs2)CC2CCC1N2C (centres unmarked) [Compound 114] has inhibition at 1 µM at or above 10%?
1.0

----------
Entries annotated with measured inhibition at 1 µM
studyTarget: human recombinant histamine H2 receptor (Homo sapiens, UniProt P25021)
Construct: expressed in transfected cells; host or cells: CHO-K1 cells
Sequence (P25021 whole entry): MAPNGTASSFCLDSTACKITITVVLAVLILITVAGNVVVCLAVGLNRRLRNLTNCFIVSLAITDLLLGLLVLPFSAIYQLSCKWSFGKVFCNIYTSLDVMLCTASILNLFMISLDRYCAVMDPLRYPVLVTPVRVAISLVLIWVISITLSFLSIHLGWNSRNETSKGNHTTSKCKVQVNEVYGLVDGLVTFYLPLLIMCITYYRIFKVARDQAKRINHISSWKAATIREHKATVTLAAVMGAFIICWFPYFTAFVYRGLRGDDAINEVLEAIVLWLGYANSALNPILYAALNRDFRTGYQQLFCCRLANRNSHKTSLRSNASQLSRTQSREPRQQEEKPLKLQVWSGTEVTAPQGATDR
assayOverview: Histamine H2 radioligand binding ([125I]Aminopotentidine)
cond: compound at 1 μM; inhibition of specific [125I]Aminopotentidine binding; read-out: Histamine Binding (1 μM) H2, Percentage Inhibition
Response body: numeric value in %, unit text excluded.

Illustrative cases are given below, each with its answer.
compound: CCOC(=O)CCn1c2c(c3cc(Cl)ccc31)C1CCC(C2)N1C (stereo not drawn)
scaleUnit: %
valueMeasured: 7

compound: CN1[C@@H]2CC[C@H]1c1c(n(CC(C)(O)c3ccc(F)cc3)c3ccccc13)C2 (stereo partly drawn)
scaleUnit: %
valueMeasured: 6

compound: COc1ccc(CCn2c3c(c4cc(Cl)ccc42)C2CCC(C3)N2C)cc1 (stereo not drawn)
scaleUnit: %
valueMeasured: 63

compound: COc1ccc(CCn2c3c(c4cc(C)ccc42)C2CCC(C3)N2C)cc1 (stereo not drawn)
scaleUnit: %
valueMeasured: 15

compound: Cc1ccc(CCn2c3c(c4cc(Cl)ccc42)C2CCC(C3)N2C)cc1 (stereo not drawn)
scaleUnit: %
valueMeasured: 52

The record that follows has no inhibition at 1 µM shown yet.
Request: inhibition at 1 µM, test system human recombinant histamine H2 receptor (Homo sapiens, UniProt P25021), entry Cc1ccc(CCn2c3c(c4ccccc42)[C@@H]2CC[C@H](C3)N2C)cn1
3
